B1: TPR t1 (parent)
chain: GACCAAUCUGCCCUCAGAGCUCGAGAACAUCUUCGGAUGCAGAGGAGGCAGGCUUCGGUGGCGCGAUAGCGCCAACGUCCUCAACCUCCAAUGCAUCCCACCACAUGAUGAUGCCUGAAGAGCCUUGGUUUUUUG

# Variants of: B1
# Assay overview: polymerase ribozyme fitness, log enrichment relative to wild type (log ratio); higher = more active; in vitro selection for triplet polymerase activity
Listed here are variants together with their documented polymerase ribozyme fitness (log ratio).
Measurement name: polymerase ribozyme fitness (log ratio)

>>> measured_number("GAGCAAUCUGCCCUCAGAGCUCGAGAACAUCUUCGGAUGCAGAUUAGGCAGGCUUCGGUGGCGCGAUAGCGCCAACGUCCUCAACCUCAAAUGUAUCCCACCACAUGAUGUUGCCUGAAGAGUCUUGGCUUUUUA")
-4.23
>>> measured_number("GACCAAUCUGCCCUCAGAGCUCGAGAACAUCUUCGGAUCCAGAGGAGGCAGGCUUCGGUGGCGCGAUAGCGCCAACGUCCUCAACCUCCAAUGCAUCCCACCACAUGAUGAUGCCUGAAUAGCCUUGGUUUUUUG")
-1.35
>>> measured_number("GACCAAUCUGCCCUCAGAGCUCGAGAACAUCUUCGGAUGCAGAGGAGGAAGGCUUCGGUGGCGCGAUAGCGUCAACGUCCUCAACCUCCAAUGCAUCCCACCACAUGAUGAUGCCUGAAGAGCCUUGGUUUUUUG")
-1.37
>>> measured_number("GACCAAUCUCCCCUCAGAGCUCGAGGACAUCUUCGGAUGCAGAGGAGGCAGGCUUCGGUGGCGCGAUAGCACCAACGUCCUCAACCUCCAAUGCAUCCCACCACAUGAUGAUGCCUGAAGAGCCUUGGUUUUUUG")
-2.61
>>> measured_number("GACCAAUCUGCCCUCAGAGCUCGAGAACAUCUUUGGAUGCAGAGGAGGCAGGCUUCGGUGGCCCGAUAGCGCCAACGUCCUCAACCUCCAAUGCAUCCCACCACAUGAUGCUGCCUGAAGAGCCUUGGUUUAUUG")
-4.98
>>> measured_number("GACCAAUGUGCCCUCAGAGCUCGAGAACAUCUUGGGAUGCAGAGGAGGCAGGCUUCGGUGGCGCGAUAGCGCCAACGUCCUCAACCUUCAAUGCAUCCCACCACAUGAUGACACCUGAAGAGCCUUGGUUUUUUG")
-6.08
>>> measured_number("GACCAAUCUGCCCUCAGAGCUCGAGAACAUCUUCGGAUGCAGAGGAGGUAGGCUUCGGUGGCGCGAUAGCGCCAACGUCCUCAAACUCCAAUGCAUCCCACCACAUGAUGAUGCCUGAAGAGCCUUGGUUUUUUG")
-2.47
>>> measured_number("GACCAAUCUGCGCUCAGAGCUCGAGAACAUCUUCGGAUGCAGAGGAGGCAGGAUUCGGUGGCGCGAUAGCGCCAACGUCCUCAACCUCCAAUGCAUCCCACCACAUGAUGAUGCCUGAAGAGCCUUGGUUUUUUG")
0.285
>>> measured_number("GACCAAUCUGCCCUCAGAGCUCGAGAACAUCUUCUGAUGCAGAGGAGGCAGGCUUCGGUGGCUCGAUAGCGCCAACGUCCUCAACCUCCAAUGCAUCCCAACACAUGAUGAUGCUUGAAGAGCCUUGGUUUUUUG")
-5.79
>>> measured_number("GACCAAUCUGCACUCAGAGCUCGAGAACAUCUUCGGAUGCAGAGGAGGCAGGCUUCGGUGGCGCGAUAGCGCCAACGUCCUCAACCUCCAAUGCAUCCCACCACAUGAUGAUGUCUGAAGAGCCUUGGUUUUUUA")
-3.81
>>> measured_number("GACCAAUCUGCCAUCAGAGCUCGAGAACAUCUUCGGAUGCAGAGGAUGCAGGCUUCGGUGGCUCGAUAGCGCCAACGUCCUCAACCUCCAAUGCAUCCCACCACAUGAUGAUGCCUGAAGAGCCUUGGUUUUUUG")
-4.2
>>> measured_number("GACCAUUCUGCCCUCAUAGCUCGAGAACAUCUUCGGAUGUAGAGGAGGCAGGCUUCGGUGGCGCGAUAGCGCCAAGGUCCUCAACCUCCAAUGCAUCCCACCACAUGAUGAUGCCUGAAGAGCCUUGGUUUUUUG")
-3.15
>>> measured_number("GACCAAUCUGCCUUCAGAGCUCGAGAUCAUCUUCGGAUGCAUAGGAGGCAGGCUUCGGUGGCGGGAUAGCGCCAACGUCCUCAACCUCCAAUGCAUCCCCCCACAUGAUGAUGCCUGAACAGGCUUGGUUUUUUG")
-7.95
>>> measured_number("GACCAAUCUGCCCUCAGAGCACGAGAACAUCUUCGGAUGCAGAGGAGGCAGGCUUCGGUGGCCCGAUAGCGCCAACGUCCUCAACCUCCAAUGCAUCCCACCACAUGAUGAUGCCUGAAGAGCCUUGGUUUUUUG")
-0.995
>>> measured_number("GACCAAUCUGCCCUCAGGGCUCGAGAACAUCUUCGGAUGCAGAGGAGGCAGGCUUCGGUGGCGCGAUAGCGCCCACGUCCUCAACCUCCAAUGCAUACCACCACAAGAUGAUGCCUGAAGAGCCUUGGUUUUUUG")
-6.31
>>> measured_number("GACCAAUCUGCCCUCAGAGCUCGAGAACAUCUUCGGUUGCAGAGGAGGCAGGCUUCGGUGGCGCGAUAGCGCCAACCUCCUCAACCUCCAAUGCAUCCCACCACAUGAUGAUGCCUGAAGAGCCUUGGUUUUUUG")
-1.31
>>> measured_number("GACCAAUCUGCCCUCAGAGCUCGAGAACAUCUUCGGAUGCAGAGGAGGCAGGCUUCGGUGUCGCGAUAGCGCUAACGUCCUCAACCUCCAAUGCAUCCCACCACAUGAUGAUGCCUGAAGGGCCUUGGUUUUUUG")
0.407
>>> measured_number("GACCAAUCUGCCCUCAGAGCUCGAGAACAUCUUCGGAUGCAGGGGAGGCAGGAUUCGGUGGCGCGAUAGCGCCAACGUCCUCAACCUCCAAUGCAUCCCACCACAUGAUGAUGCCUGAAGAGCCUUGGUUUUUUG")
-2.39
>>> measured_number("GACCAAUCUGCCCUGAGAGCUCGAGAACAUCUUCGGAUGCAGAGGAGGCAGGCUUCGGUGGCGCGAUAGCACCAACGUCCUCAACCUCCAAUGCAUCCCACCACAUGAUGAUGCCUGAAGAGCCUUGGUUUUUUG")
-2.92
>>> measured_number("GACCAAUGUGCCCUCAGAGCUCGAGAACAUCUUCGGAUGCAGAGGAGGCAGGCGUCGGUGGCGUGAUAGCGCCAACGUCCUCAACCUCGAAUGCAUCCCACCACAUGAUGAUGCCUGAAGAGCCUUGGUUUUUUG")
-4.42
>>> measured_number("GACCAAUCUGCCCUCAGAGCUCGAGAACAUCUUCGGAUGCAGAGGAGGCAUGUUUCGGUGGCGCGAUAGCGCCAACGUCCUCAACCUCCAAUGCAUCCCACCACAUGAUGAUGCCUGAAGAGCCUUGGUUUUUUG")
-2.7
>>> measured_number("GACCAAUCUGCCCUGAGAGCUCGAGAACAUCUUCGGAUGCAGAUGAGGCAGGCUUCGGUGGCGCGAUAGCGUCAACGUCCUCAACCUCCAAUGCAUCCCACCACAUGAUGAUGCCUGAAGAGCCUUGGUUUUUUG")
-4.59
